Target: EGFR L858R/C797S (Homo sapiens, UniProt P00533, C797S/L858R)
Sequence (P00533 25-1210 C797S/L858R): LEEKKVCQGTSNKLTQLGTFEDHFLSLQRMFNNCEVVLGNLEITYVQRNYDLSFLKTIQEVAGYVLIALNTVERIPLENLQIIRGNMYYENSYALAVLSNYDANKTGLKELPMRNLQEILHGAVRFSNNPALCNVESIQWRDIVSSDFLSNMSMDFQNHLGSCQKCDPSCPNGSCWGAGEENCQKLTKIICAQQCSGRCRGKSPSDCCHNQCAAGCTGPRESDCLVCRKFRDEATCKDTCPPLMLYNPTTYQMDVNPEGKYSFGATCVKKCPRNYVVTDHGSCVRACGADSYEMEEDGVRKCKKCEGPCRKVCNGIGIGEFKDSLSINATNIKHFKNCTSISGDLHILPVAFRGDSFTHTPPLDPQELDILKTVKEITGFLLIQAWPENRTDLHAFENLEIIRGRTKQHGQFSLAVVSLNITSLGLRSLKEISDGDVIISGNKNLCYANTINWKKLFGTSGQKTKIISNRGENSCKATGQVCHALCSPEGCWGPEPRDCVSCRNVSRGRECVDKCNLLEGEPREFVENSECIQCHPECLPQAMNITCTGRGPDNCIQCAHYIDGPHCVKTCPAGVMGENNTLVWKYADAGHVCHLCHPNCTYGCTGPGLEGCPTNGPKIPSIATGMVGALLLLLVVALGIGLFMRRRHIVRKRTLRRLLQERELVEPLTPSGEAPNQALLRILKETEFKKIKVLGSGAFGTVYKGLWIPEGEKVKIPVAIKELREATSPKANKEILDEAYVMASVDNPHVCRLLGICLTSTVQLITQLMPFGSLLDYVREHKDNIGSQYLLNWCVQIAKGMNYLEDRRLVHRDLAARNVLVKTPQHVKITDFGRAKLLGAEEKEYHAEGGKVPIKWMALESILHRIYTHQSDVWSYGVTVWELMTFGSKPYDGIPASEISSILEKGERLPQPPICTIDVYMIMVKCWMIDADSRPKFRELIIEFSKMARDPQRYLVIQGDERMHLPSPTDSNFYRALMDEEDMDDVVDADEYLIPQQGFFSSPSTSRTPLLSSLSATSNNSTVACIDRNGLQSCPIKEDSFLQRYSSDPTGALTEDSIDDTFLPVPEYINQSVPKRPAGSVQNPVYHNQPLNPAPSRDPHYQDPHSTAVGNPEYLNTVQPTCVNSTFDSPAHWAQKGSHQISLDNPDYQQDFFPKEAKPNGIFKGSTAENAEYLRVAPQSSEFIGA
Assay: Biochemical EGFR kinase assay (Lance Ultra TR-FRET), double mutant L858R/C797S
Conditions: IC50 L858R/C797S, 100 μM ATP
Decision: IC50 beneath 20 nM gives satisfied; IC50 meeting or exceeding 20 nM gives not satisfied.

Please review the following examples before continuing.
CC(C)(O)c1ccc(-c2cnc(Nc3ccnc(-c4cnn(S(=O)(=O)C5CC5)c4)n3)cc2N[C@H]2CC[C@@H](CO)CC2)nc1; satisfied
CC(C)(O)[C@H]1CC[C@@H](Nc2cc(Nc3ccnc(-c4cnn(S(=O)(=O)C5CC5)c4)n3)ncc2-c2cnc(F)cn2)CC1; not satisfied
CC(C)(O)[C@H]1CC[C@@H](Nc2cc(Nc3ccnc(-c4cnn(S(=O)(=O)C5CC5)c4)n3)ncc2-c2ccc(S(C)(=O)=O)cn2)CC1; satisfied
CC(C)(O)[C@H]1CC[C@@H](Nc2cc(Nc3ccnc(-c4cnn(S(=O)(=O)C5CC5)c4)n3)ncc2-c2cccc(CC(F)(F)F)n2)CC1; not satisfied

--- query ---
State whether 20 nM exceeds IC50 recorded for CN1CCN(C(=O)c2ccc(-c3cnc(Nc4ccnc(-c5cnn(S(=O)(=O)C6CC6)c5)n4)cc3N[C@H]3CC[C@@](C)(O)CC3)nc2)CC1 .
satisfied
